# target-or-test-system: T1, natriuretic peptide receptor-B (human)
# T1 chain: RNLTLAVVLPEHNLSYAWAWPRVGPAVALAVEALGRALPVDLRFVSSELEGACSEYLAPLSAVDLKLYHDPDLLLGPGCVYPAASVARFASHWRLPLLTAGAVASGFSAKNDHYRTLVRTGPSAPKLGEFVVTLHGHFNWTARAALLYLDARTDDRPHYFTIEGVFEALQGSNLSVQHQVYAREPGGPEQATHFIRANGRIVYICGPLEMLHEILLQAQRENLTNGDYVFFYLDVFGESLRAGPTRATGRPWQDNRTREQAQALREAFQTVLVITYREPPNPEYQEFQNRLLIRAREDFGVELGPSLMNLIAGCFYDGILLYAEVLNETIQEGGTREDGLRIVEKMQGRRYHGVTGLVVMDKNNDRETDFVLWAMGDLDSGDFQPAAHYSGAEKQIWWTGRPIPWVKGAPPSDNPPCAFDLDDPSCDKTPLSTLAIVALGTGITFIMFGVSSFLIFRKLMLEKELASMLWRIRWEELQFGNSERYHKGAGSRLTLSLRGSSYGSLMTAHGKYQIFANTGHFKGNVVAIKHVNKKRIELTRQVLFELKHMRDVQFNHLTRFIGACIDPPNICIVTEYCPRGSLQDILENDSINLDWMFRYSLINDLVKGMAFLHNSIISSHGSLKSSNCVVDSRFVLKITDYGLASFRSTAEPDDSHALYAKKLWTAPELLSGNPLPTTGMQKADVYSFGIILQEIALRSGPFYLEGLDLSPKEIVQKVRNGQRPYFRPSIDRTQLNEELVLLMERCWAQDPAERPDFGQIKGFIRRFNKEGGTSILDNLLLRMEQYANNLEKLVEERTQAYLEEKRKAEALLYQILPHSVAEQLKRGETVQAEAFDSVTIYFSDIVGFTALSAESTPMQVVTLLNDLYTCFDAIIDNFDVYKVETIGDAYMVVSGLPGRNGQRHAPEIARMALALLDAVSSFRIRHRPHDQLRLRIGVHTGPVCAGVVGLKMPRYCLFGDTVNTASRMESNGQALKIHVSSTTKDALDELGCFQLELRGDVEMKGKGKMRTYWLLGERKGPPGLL
# method-summary: cell-based or functional assay
Numbered stars: 1 amine (or outer) side, 2 acyl side, 3 side chain; on linkers, the order of the positions; unused ones are H or OH. Square brackets hold non-standard residues; d marks the D form. Ends that are not written are not given here. * marks the point of attachment. ctb = (S)-2-amino-3-(tert-butylthio)propanoic acid, CC(C)(C)SC[C@@H](N[*:1])C(=O)[*:2]; 5116 = (1S,2R)-2-aminocyclohexanecarboxamide, NC(=O)[C@H]1CCCC[C@H]1N*; Sni = (S)-nipecotic acid, O=C([C@H]1CCCN([*:1])C1)[*:2]; 6056 = (2S)-2-octylcyclopropanecarboxylic acid; Phe(4-Cl) = N[C@@H](Cc1ccc(Cl)cc1)C(=O)O; Hyp = O=C(O)[C@@H]1C[C@@H](O)CN1; NMeL = CN[C@@H](CC(C)C)C(=O)O; Octanoyl = CCCCCCCC(=O)*; Api = NC1(C(=O)O)CCNCC1; Che = not defined here; ala = not defined here; leu = not defined here; Occ = octanoic acid
Entries and their measured EC50 group, cGMP in GTM-3 cells follow.

>  <binder>
Octanoyl-[ala][ala]FGLKLDR[5116] (reading uncertain; also: printed as Occ-ala-ala-Phe-Gly-Leu-Lys-Leu-Asp-Arg-5116) [JAL-0825]

>  <EC50 group, cGMP in GTM-3 cells>
≤ 15 µM

$$$$
>  <binder>
Octanoyl-[dA][Phe(4-Cl)][dL]L[Hyp][NMeL]DRI-NH2 [JAL-1043]

>  <EC50 group, cGMP in GTM-3 cells>
≤ 1 µM

$$$$
>  <binder>
6056-FRL[Hyp][NMeL]DRI-NH2 (not fully specified (some residues); printed as 6056-Phe-arg-Leu-Hyp-Nml-Asp-Arg-Ile-NH2) [JAL-1240]

>  <EC50 group, cGMP in GTM-3 cells>
≤ 5 µM

$$$$
>  <binder>
[Occ][Sni]F[leu]LX[NMeL]DRI-NH2 (not fully specified (residue 6); printed as Occ-Sni-Phe-leu-Leu-Hyp(Asp(-))-Nml-Asp-Arg-Ile-NH2) [JAL-1928]

>  <EC50 group, cGMP in GTM-3 cells>
≤ 5 µM

$$$$
>  <binder>
Octanoyl-[dA]F[ctb]L[Hyp]LDRI-NH2 [JAL-1029]

>  <EC50 group, cGMP in GTM-3 cells>
≤ 5 µM

$$$$
>  <binder>
[Occ][Sni]F[Api]L[Hyp][NMeL]DP[Che] (reading uncertain; also: printed as Occ-Sni-Phe-Apc-Leu-Hyp-Nml-Asp-Pro-Che) [JAL-1601]

>  <EC50 group, cGMP in GTM-3 cells>
≤ 5 µM

$$$$
